B1: TRIM63 (parent)
chain: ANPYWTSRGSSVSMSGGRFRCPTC

Variants of: B1
Assay: protein stability index of a GFP-peptide fusion (GPS, HEK-293T) (PSI 1-6); higher = more stable;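 also: lentivirally expressed fusions sorted by FACS into six bins by GFP to DsRed ratio, PSI derived from sequencing read proportions per bin multiplied by bin number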
Conditions: c terminus: a fixed tail appended
QUANTITY NAME: protein stability index

Form: variant = ANPYWTSRGSSPSMSGGRFRCPTC [V12P] ; protein stability index = 2.78

Form: variant = AAPYWTSRGSSVSMSGGRFRCPTC [N2A] ; protein stability index = 2.08

Form: variant = ANPYWTSRGYSVSMSGGRFRCPTC [S10Y] ; protein stability index = 1.57

Form: variant = ANPYWTSQGSSVSMSGGRFRCPTC [R8Q] ; protein stability index = 1.99

Form: variant = ANPYWTSRGSSVSMSGGRFHCPTC [R20H] ; protein stability index = 1.85

Form: variant = ANPYWTERGSSVSMSGGRFRCPTC [S7E] ; protein stability index = 1.28

Form: variant = ANPYWTSRGSSVSMSGGRFRCPTQ [C24Q] ; protein stability index = 2.12

Form: variant = SNPYWTSRGSSVSMSGGRFRCPTC [A1S] ; protein stability index = 2.69

Form: variant = ANPYWTSRGSSVIMSGGRFRCPTC [S13I] ; protein stability index = 1.58

Form: variant = ANPYWTSRGSSGSMSGGRFRCPTC [V12G] ; protein stability index = 2.1

Form: variant = ANPYQTSRGSSVSMSGGRFRCPTC [W5Q] ; protein stability index = 2.62

Form: variant = ANPYWTSRGSSVLMSGGRFRCPTC [S13L] ; protein stability index = 2.07

Form: variant = ANPYWTSRGSSVSMSGGRFRCPYC [T23Y] ; protein stability index = 1.75

Form: variant = ANPGWTSRGSSVSMSGGRFRCPTC [Y4G] ; protein stability index = 1.36

Form: variant = ANPYWTSRGSSVSMSGGRFGCPTC [R20G] ; protein stability index = 1.82

Form: variant = ANPYFTSRGSSVSMSGGRFRCPTC [W5F] ; protein stability index = 1.41

Form: variant = ANPYYTSRGSSVSMSGGRFRCPTC [W5Y] ; protein stability index = 1.7

Form: variant = ANPYWTSRGSSVSMSCGRFRCPTC [G16C] ; protein stability index = 1.91

Form: variant = ANPYWTPRGSSVSMSGGRFRCPTC [S7P] ; protein stability index = 1.27

Form: variant = ANPYWTSRGSSVSMSFGRFRCPTC [G16F] ; protein stability index = 1.32

Form: variant = ANPYWQSRGSSVSMSGGRFRCPTC [T6Q] ; protein stability index = 3.06

Form: variant = ANPYWTSRGSSVSMSGGRTRCPTC [F19T] ; protein stability index = 2.94

Form: variant = ANPYWTSGGSSVSMSGGRFRCPTC [R8G] ; protein stability index = 1.55

Form: variant = ANPYWTFRGSSVSMSGGRFRCPTC [S7F] ; protein stability index = 2.07

Form: variant = ANPYWTSRGSSVSMSGGRFRCPTP [C24P] ; protein stability index = 3.22

Form: variant = ANPYWTSRGSSVSMSGGRFRMPTC [C21M] ; protein stability index = 3.26

Form: variant = ANPNWTSRGSSVSMSGGRFRCPTC [Y4N] ; protein stability index = 2.34

Form: variant = ANPAWTSRGSSVSMSGGRFRCPTC [Y4A] ; protein stability index = 1.33

Form: variant = ENPYWTSRGSSVSMSGGRFRCPTC [A1E] ; protein stability index = 2.31

Form: variant = ANPDWTSRGSSVSMSGGRFRCPTC [Y4D] ; protein stability index = 2.51

Form: variant = ANPYWTSRGSSVSMSGPRFRCPTC [G17P] ; protein stability index = 1.76

Form: variant = ANPYWTLRGSSVSMSGGRFRCPTC [S7L] ; protein stability index = 1.6

Form: variant = ANPYWTSRGSSVSMSGGRFRCPTF [C24F] ; protein stability index = 2.55

Form: variant = ANPYGTSRGSSVSMSGGRFRCPTC [W5G] ; protein stability index = 2.45

Form: variant = ANPYWTSRGSSVSMSHGRFRCPTC [G16H] ; protein stability index = 2.42

Form: variant = ANPYWTSRGSSVSMSGGRFSCPTC [R20S] ; protein stability index = 2.32

Form: variant = ANPYWTSRGMSVSMSGGRFRCPTC [S10M] ; protein stability index = 1.84

Form: variant = ANPYWTSRGSSYSMSGGRFRCPTC [V12Y] ; protein stability index = 1.69

Form: variant = ANPYWTSAGSSVSMSGGRFRCPTC [R8A] ; protein stability index = 1.85

Form: variant = ANPCWTSRGSSVSMSGGRFRCPTC [Y4C] ; protein stability index = 2.92

Form: variant = ANPYWTSRGKSVSMSGGRFRCPTC [S10K] ; protein stability index = 1.65

Form: variant = ANPYWTSRGSSVSMLGGRFRCPTC [S15L] ; protein stability index = 2.03

Form: variant = ANPYWTSIGSSVSMSGGRFRCPTC [R8I] ; protein stability index = 1.4

Form: variant = ALPYWTSRGSSVSMSGGRFRCPTC [N2L] ; protein stability index = 1.37
